Just for reference, the Immune Epitope Database (IEDB) is where these values come from.

Attribute: Kd
Biological target: HLA-B*07:02
Assay: IEDB peptide-MHC binding, purified MHC/competitive/radioactivity; filed as Kd, often an IC50 or EC50 that approximates it; bounds were set here for any values at or beyond the usual limits of such assays
Details: source organism: Human immunodeficiency virus 1
Returns: string containing the numeric result and its unit.

{"query-sequence": "GPKVKQWPI", "system-name": "HLA-B*07:02", "Kd": "5.57 µM"}
{"query-sequence": "WPLTEEKIKI", "system-name": "HLA-B*07:02", "Kd": "19.4 µM"}

Shift focus to the following entry.
query: Which Kd reading was recorded for the sequence `TPGIRYQYNI` ?
result: 8.62 µM
